- system name: CXCL6 (human)
- method: BLI
quantity measured: Kd (nM)
Please give a number only; it is taken to be in nM.

// query Please report the recorded Kd for P1156 (evasin from Ixodes ricinus), purified, C-terminal StrepII:His tag (natural protein) DGGADDDNELFTVQYCGMNCTKDEGGTWTGCTGKKEGCKCYHESGKNYGLCLSTEYTDFSQYGNPSDSEIEAAKPKRSDTLSH .
// result 63

Sourced from paper PMC5910400
